Source: ChEMBL document CHEMBL4609988

Test Name: Volume of distribution at steady state in rat at 1 mg/kg, iv
Format: ADME, organism-based
Test Conditions: in vivo, read-out: Vdss
Vd values, listed per item
API: value field is a number in L/kg; no unit string.

Example entries begin here.
In [3]: df
Out[3]:
                              sample_smiles  observed_property  assay_value
0  Cn1c(Cc2ccc(F)cc2)cnc1-c1nc2n(c(=O)c1O)CCOC2(C)C                 Vd          0.5
1  CC1(C)OCCn2c1nc(-c1ncn(Cc3ccc(F)cc3)n1)c(O)c2=O                 Vd          1.5
2  CC1(C)OCCn2c1nc(-c1ncc(Cc3ccc(F)cc3)[nH]1)c(O)c2=O                 Vd          0.3

Field: next molecule
Answer with the recorded Vd for the molecule listed here: CC1(C)OCCn2c1nc(-c1cn(Cc3ccc(F)cc3)cn1)c(O)c2=O 3.5

====

Tested on: Human immunodeficiency virus 1
Test Name: Ratio of EC50 for antiviral activity against HIV1 NL4-3 harboring N155H mutant to EC50 for antiviral activity against HIV1 NL4-3
Type: functional
Observed Property: Ratio EC50
Number, no unit, nothing else.

>>> print(df.to_string())
                              sample_smiles                  assayed_target  observed_property  assay_value
0  CC1(C)OCCn2c1nc(C(=O)NCc1ccc(F)cc1)c(O)c2=O  Human immunodeficiency virus 1         Ratio EC50           47
1  CC1(C)OCCn2c1nc(-c1ncc(Cc3ccc(F)cc3)s1)c(O)c2=O  Human immunodeficiency virus 1         Ratio EC50           11
2  CC1(C)OCCn2c1nc(-c1ncn(Cc3ccc(F)cc3)n1)c(O)c2=O  Human immunodeficiency virus 1         Ratio EC50            2
3  CC1(C)OCCn2c1nc(-c1cc(Cc3ccc(F)cc3)[nH]n1)c(O)c2=O  Human immunodeficiency virus 1         Ratio EC50           22

Quote Human immunodeficiency virus 1 Ratio EC50 for entry CC1(C)OCCn2c1nc(-c1ncc(Cc3ccc(F)cc3)o1)c(O)c2=O . 4

State measured Ratio EC50 of the compound CC1(C)OCCn2c1nc(-c1ncc(Cc3ccc(F)cc3)[nH]1)c(O)c2=O with Human immunodeficiency virus 1. 0.3

Give Ratio EC50 for this entry on Human immunodeficiency virus 1: CC1(C)OCCn2c1nc(-c1nnc(Cc3ccc(F)cc3)o1)c(O)c2=O 3

// output Ratio EC50; input CC1(C)OCCn2c1nc(-c1nnc(Cc3ccc(F)cc3)[nH]1)c(O)c2=O ; system Human immunodeficiency virus 1 49

Under Human immunodeficiency virus 1, report Ratio EC50 for CC1(C)OCCn2c1nc(-c1cn(Cc3ccc(F)cc3)cn1)c(O)c2=O 2

====

Tested on: Human immunodeficiency virus 1
Test Name: Antiviral activity against HIV1 NL4-3 harboring Q148R mutant by cellular assay
Type: functional, organism-based
Test Conditions: Human immunodeficiency virus 1, NL4-3
Observed Property: pEC50
Note on pEC50: it is the negative log10 of concentration, concentration in mol/L.

>>> df
                              sample_smiles  assay_value
0  CC1(C)OCCn2c1nc(-c1ncc(Cc3ccc(F)cc3)s1)c(O)c2=O         7.04

Read the entry CC1(C)OCCn2c1nc(-c1ncn(Cc3ccc(F)cc3)n1)c(O)c2=O and write its reported pEC50. 6.66

Determine from records and report pEC50 for Cn1c(Cc2ccc(F)cc2)nnc1-c1nc2n(c(=O)c1O)CCOC2(C)C 6.35

Please give the documented pEC50 of CC1(C)OCCn2c1nc(-c1cn(Cc3ccc(F)cc3)cn1)c(O)c2=O 7.59

Tell me measured pEC50 for CC1(C)OCCn2c1nc(C(=O)NCc1ccc(F)cc1)c(O)c2=O please. 6.52

Write down pEC50 measured for item CC1(C)OCCn2c1nc(-c1nnc(Cc3ccc(F)cc3)[nH]1)c(O)c2=O 5.82

Give the measured pEC50 for CC1(C)OCCn2c1nc(-c1cc(Cc3ccc(F)cc3)[nH]n1)c(O)c2=O 5.52

Report measured pEC50; entry is CC1(C)OCCn2c1nc(-c1ncc(Cc3ccc(F)cc3)o1)c(O)c2=O 6.48

Indicate its recorded pEC50; the compound in question is Cn1c(Cc2ccc(F)cc2)cnc1-c1nc2n(c(=O)c1O)CCOC2(C)C 7.21

Please indicate pEC50 recorded for CC1(C)OCCn2c1nc(-c1ncc(Cc3ccc(F)cc3)[nH]1)c(O)c2=O 7.48

Give pEC50 for the following compound: CC1(C)OCCn2c1nc(-c1nnc(Cc3ccc(F)cc3)o1)c(O)c2=O 6.72

====

Test Name: Clearance in rat at 1 mg/kg, iv
Type: ADME, organism-based
Test Conditions: in vivo
List of clearance values.

Use the examples below as a reference point.
                              sample_smiles    assay_value
0  CC1(C)OCCn2c1nc(-c1cn(Cc3ccc(F)cc3)cn1)c(O)c2=O  127 mL/min/kg
1  Cn1c(Cc2ccc(F)cc2)cnc1-c1nc2n(c(=O)c1O)CCOC2(C)C   11 mL/min/kg
2  CC1(C)OCCn2c1nc(-c1ncn(Cc3ccc(F)cc3)n1)c(O)c2=O   52 mL/min/kg

Query compound follows.
Provide measured clearance value, entry: CC1(C)OCCn2c1nc(-c1ncc(Cc3ccc(F)cc3)[nH]1)c(O)c2=O 10 mL/min/kg

====

Items are presented alongside their recorded pEC50.
Assayed Target: Human immunodeficiency virus type 1 integrase (Human immunodeficiency virus 1)
Test Name: Inhibition of HIV-1 integrase strand transfer activity
pEC50: −log10 of the molar value.

>>> print(df.to_string())
                              sample_smiles  assay_value
0  Cc1nc(-c2nc3n(c(=O)c2O)CCOC3(C)C)nn1Cc1ccc(F)cc1       < 4.52
1  Cn1cc(Cc2ccc(F)cc2)nc1-c1nc2n(c(=O)c1O)CCOC2(C)C         5.03

// next item, pEC50 requested
Provide pEC50, recorded with Human immunodeficiency virus type 1 integrase (Human immunodeficiency virus 1), of CC1(C)OCCn2c1nc(-c1nc(Cl)c(Cc3ccc(F)cc3)[nH]1)c(O)c2=O < 4.19
